Target: human plasma butyrylcholinesterase (BuChE) (Homo sapiens, UniProt P06276)
Sequence (P06276 29-602): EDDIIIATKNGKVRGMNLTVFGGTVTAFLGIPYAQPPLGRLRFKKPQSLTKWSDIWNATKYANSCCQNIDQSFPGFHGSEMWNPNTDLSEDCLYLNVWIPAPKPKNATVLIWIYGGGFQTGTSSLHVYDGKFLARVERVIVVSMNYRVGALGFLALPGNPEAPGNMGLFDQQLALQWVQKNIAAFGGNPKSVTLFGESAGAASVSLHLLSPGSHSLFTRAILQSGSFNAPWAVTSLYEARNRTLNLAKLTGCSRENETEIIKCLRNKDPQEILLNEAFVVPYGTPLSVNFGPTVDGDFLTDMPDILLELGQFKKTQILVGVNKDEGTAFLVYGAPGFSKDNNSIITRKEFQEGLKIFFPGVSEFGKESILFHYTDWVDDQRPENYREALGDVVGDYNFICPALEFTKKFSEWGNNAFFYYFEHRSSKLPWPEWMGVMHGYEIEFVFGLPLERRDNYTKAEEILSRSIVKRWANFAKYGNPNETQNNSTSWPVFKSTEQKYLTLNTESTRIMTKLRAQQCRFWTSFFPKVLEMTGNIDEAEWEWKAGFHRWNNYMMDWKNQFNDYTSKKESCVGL
Assay: biochemical
PROPERTY LABEL: IC50 (µM)
Give the number; µM is assumed, so skip it.

Query string: Look up IC50 of OCCOCCN1CCN(C2=Nc3ccccc3Sc3ccccc32)CC1 and report it.
Result string: 6.08

###

Target: human erythrocyte acetylcholinesterase (AChE) (Homo sapiens)
Construct: 400-fold diluted solution of haemolysed erythrocytes or 200-fold diluted plasma; from tissue; host or cells: haemolysed erythrocytes from blood of healthy human donors
Sequence (P22303 other isoform, or with tags, fused parts or gaps): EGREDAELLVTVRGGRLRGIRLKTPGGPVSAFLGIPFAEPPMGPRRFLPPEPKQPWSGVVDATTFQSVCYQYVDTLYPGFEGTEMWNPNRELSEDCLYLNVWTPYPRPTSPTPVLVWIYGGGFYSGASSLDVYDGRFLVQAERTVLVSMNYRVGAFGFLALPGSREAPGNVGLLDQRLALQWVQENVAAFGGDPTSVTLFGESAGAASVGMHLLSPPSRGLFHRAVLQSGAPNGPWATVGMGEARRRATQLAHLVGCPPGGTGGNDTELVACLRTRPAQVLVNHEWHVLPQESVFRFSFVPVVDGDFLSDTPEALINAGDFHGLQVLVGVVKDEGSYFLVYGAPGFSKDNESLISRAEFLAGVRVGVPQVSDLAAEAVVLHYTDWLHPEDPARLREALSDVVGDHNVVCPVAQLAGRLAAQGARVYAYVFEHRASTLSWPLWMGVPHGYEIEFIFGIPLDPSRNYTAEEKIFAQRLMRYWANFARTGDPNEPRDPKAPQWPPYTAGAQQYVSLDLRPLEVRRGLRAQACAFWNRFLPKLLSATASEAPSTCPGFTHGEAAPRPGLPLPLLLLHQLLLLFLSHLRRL
Experiment: biochemical
Assay type: biochemical
pIC50: −log10 of the molar value.
PROPERTY LABEL: pIC50

Query string: Item OCCOCCN1CCN(C2=Nc3ccccc3Sc3ccccc32)CC1 : provide pIC50
Result string: < 4.00
